B1: EPB41L3 (parent)
chain: SDYISEFRFAPNHTKELEDKVIEL

# Variants of: B1
# ASSAY_EXPLANATION: protein stability index of a GFP-peptide fusion (GPS, HEK-293T) (PSI 1-6); higher = more stable;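 also: lentivirally expressed fusions sorted by FACS into six bins by GFP to DsRed ratio, PSI derived from sequencing read proportions per bin multiplied by bin number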
# ASSAY_CONTEXT: c terminus: a fixed tail appended
Listed here: items and their measured protein stability index.
MEASURED_ENDPOINT: protein stability index

variant_code=V21T assay_result=2.18
variant_code=V21R assay_result=1.78
variant_code=E16I assay_result=2.08
variant_code=S1H assay_result=2.1
variant_code=Y3K assay_result=2.69
variant_code=N12R assay_result=1.43
variant_code=S1C assay_result=1.75
variant_code=I4F assay_result=2.77
variant_code=F7T assay_result=4.57
variant_code=D19Y assay_result=1.36
variant_code=H13L assay_result=2.31
variant_code=E23Q assay_result=2.05
variant_code=E18V assay_result=2.07
variant_code=Y3D assay_result=4.03
variant_code=K15L assay_result=1.75
variant_code=L17W assay_result=1.77
variant_code=P11I assay_result=2.49
variant_code=N12L assay_result=2.2
variant_code=D2W assay_result=1.89
variant_code=V21W assay_result=2.14
variant_code=L17N assay_result=2.17
variant_code=E23D assay_result=2.01
variant_code=K15P assay_result=2.29
variant_code=P11Y assay_result=1.8
variant_code=R8K assay_result=4.26
variant_code=P11V assay_result=2.23
variant_code=H13P assay_result=1.99
variant_code=D2L assay_result=2.18
variant_code=E6Y assay_result=1.84
variant_code=F9R assay_result=4.58
variant_code=L24Q assay_result=2.71
variant_code=E16V assay_result=1.89
variant_code=Y3E assay_result=4.43
variant_code=L24G assay_result=3.33
variant_code=E6H assay_result=1.43
variant_code=D19T assay_result=1.8
variant_code=E23N assay_result=1.42
variant_code=V21Y assay_result=2.14
variant_code=D2C assay_result=2.46
variant_code=H13G assay_result=2.16
variant_code=Y3G assay_result=2.94
variant_code=I4Q assay_result=3.98
variant_code=K15D assay_result=2.49
variant_code=S5G assay_result=1.8
variant_code=T14K assay_result=1.4
variant_code=E23P assay_result=1.82
